Reported pIC50 values for a set of compounds
Target: GSK3α (GST-full length GSK3α) (Homo sapiens (Human), UniProt P49840)
Sequence (P49840 whole entry): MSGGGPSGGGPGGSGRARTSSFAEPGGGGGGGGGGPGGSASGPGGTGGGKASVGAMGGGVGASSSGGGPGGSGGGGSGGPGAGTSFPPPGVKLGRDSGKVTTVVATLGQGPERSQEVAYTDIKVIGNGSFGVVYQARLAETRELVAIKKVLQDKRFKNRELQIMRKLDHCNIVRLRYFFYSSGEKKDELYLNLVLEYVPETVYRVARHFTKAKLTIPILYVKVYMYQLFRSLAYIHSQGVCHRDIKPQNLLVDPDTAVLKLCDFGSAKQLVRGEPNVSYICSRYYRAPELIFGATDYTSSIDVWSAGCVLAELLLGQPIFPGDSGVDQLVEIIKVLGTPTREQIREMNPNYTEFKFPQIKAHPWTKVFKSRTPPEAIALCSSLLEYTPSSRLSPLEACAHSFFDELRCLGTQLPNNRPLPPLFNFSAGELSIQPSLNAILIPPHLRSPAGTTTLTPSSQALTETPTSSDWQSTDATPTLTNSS
Test: GSK3α TR-FRET kinase assay
Assay type: biochemical
Details: 1 nM GSK3α, 4 μM ATP, 30 minute preincubation; geometric mean; read-out: GSK3-A TR-FRET BIOCHEMICAL (TR-FRET); GMean; IC50
pIC50: −log10 of the molar value.

Some solved cases for reference:
[
  {
    "compound": "CCC1(c2cccc(C(F)(F)F)c2)C2=C(CC(C)(C)CC2=O)Nc2n[nH]c(Br)c21 (stereo not shown) [Compound 810464]",
    "readoutValue": "5.30 to 6.00"
  },
  {
    "compound": "CCC1(c2cccc(-c3cn(C)nc3C)c2)C2=C(CC(C)(C)N(C)C2=O)Nc2n[nH]cc21 (stereo not shown) [Compound 948304]",
    "readoutValue": "≥ 7.00"
  },
  {
    "compound": "CCC1(c2cccc(-c3ccnc(C)c3F)c2)C2=C(CC(C)(C)NC2=O)Nc2n[nH]c(C)c21 (stereo not shown) [Compound 947402]",
    "readoutValue": "≥ 7.00"
  },
  {
    "compound": "CC[C@@]1(c2ccccc2)C2=C(C[C@]3(CCCOC3)CC2=O)Nc2n[nH]cc21 [Compound 816879]",
    "readoutValue": "6.00 to 7.00"
  },
  {
    "compound": "CC[C@]1(c2cccc(-c3ccnc(C)c3)c2)C2=C(CC3(CCOCC3)NC2=O)Nc2n[nH]c(C)c21 [Compound 948513]",
    "readoutValue": "≥ 7.00"
  }
]

Inquiry: Look up and report pIC50, with GSK3α (GST-full length GSK3α) (Homo sapiens (Human), UniProt P49840) as system, for CCC1(c2cccc(COC)c2)C2=C(CC(C)(C)CC2=O)Nc2n[nH]cc21 (stereo not shown) [Compound 810362]
Reply text: < 5.78

Inquiry: Look up and report pIC50, with GSK3α (GST-full length GSK3α) (Homo sapiens (Human), UniProt P49840) as system, for CCC1(c2cccc(Br)c2)C2=C(CC(C)(C)C(F)C2=O)Nc2n[nH]cc21 (stereo not shown) [Compound 835314]
Reply text: ≥ 7.00

----------
Target: GSK3α (GST-full length GSK3α) (Homo sapiens (Human), UniProt P49840)
Assay: GSK3α TR-FRET kinase assay
Format: biochemical
Details: 1 nM GSK3α, 4 μM ATP, 30 minute preincubation, Table 16; read-out: GSK3-A TR-FRET BIOCHEMICAL (TR-FRET)
experimentalEndpoint: IC50

[
  {
    "compound": "COc1ccc(S(=O)(=O)N2CCC3(CC2)C2=C(CC(C)(C)CC2=O)Nc2n[nH]cc23)c(C)c1C",
    "IC50": "≤ 100 nM"
  },
  {
    "compound": "CC1(C)CC(=O)C2=C(C1)Nc1n[nH]cc1C21CCN(S(=O)(=O)c2ccc3c(c2)CCO3)CC1",
    "IC50": "≤ 100 nM"
  },
  {
    "compound": "CCOc1ccc(S(=O)(=O)N2CCC3(CC2)C2=C(CC(C)(C)CC2=O)Nc2n[nH]cc23)cc1",
    "IC50": "≤ 100 nM"
  },
  {
    "compound": "Cc1ccc(C)c(S(=O)(=O)N2CCC3(CC2)C2=C(CC(C)(C)CC2=O)Nc2n[nH]cc23)c1",
    "IC50": "≤ 100 nM"
  },
  {
    "compound": "CC1(C)CC(=O)C2=C(C1)Nc1n[nH]cc1[C@]21CC[C@@H](C(F)(F)F)C1",
    "IC50": "100 to 1000 nM"
  }
]

Inquiry: Return IC50 for the following compound: CCC1(c2cccc(-c3ccnc(C)c3OC)c2)C2=C(CC(C)(C)CC2=O)Nc2n[nH]cc21 (stereo not drawn)
Reply text: ≤ 100 nM

Inquiry: Return IC50 for the following compound: CC1(C)CC(=O)C2=C(C1)Nc1n[nH]cc1[C@]21C[C@H](n2cccn2)C1
Reply text: ≤ 100 nM

Inquiry: Return IC50 for the following compound: CC1(C)CC(=O)C2=C(C1)Nc1n[nH]cc1C21CCN(S(=O)(=O)c2ccccc2C(F)(F)F)CC1
Reply text: ≤ 100 nM

----------
Biological target: GSK3b (GST-full length GSK3b) (Homo sapiens (Human), UniProt P49841)
Sequence (P49841 whole entry): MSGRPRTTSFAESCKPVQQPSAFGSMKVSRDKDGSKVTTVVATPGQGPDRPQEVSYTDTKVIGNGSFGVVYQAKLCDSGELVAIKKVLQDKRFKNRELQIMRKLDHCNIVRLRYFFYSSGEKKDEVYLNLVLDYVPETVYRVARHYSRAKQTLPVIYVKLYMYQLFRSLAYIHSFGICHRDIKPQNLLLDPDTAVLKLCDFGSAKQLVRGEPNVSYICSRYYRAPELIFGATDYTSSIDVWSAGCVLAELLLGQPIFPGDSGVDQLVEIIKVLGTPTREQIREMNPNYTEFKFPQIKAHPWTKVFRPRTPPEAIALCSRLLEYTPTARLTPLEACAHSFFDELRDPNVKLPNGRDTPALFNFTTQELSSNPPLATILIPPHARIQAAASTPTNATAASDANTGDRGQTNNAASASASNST
Assay: GSK3b TR-FRET kinase assay
Format: biochemical
Conditions: read-out: GSK3-B (TR-FRET 1 mM ATP); GMean; IC50; 1 mM ATP; geometric mean
pIC50: −log10 of the molar value.
experimentalEndpoint: pIC50

Some solved cases for reference:
[
  {
    "compound": "CC[C@]1(c2cccc(-c3ccncc3C)c2)C2=C(CC(C)(C)CC2=O)Nc2n[nH]cc21",
    "studyTarget": "GSK3b (GST-full length GSK3b) (Homo sapiens (Human), UniProt P49841)",
    "readoutValue": "6.00 to 7.00"
  },
  {
    "compound": "CC[C@]1(c2cccc(C3CC3)c2)C2=C(CC(C)(C)CC2=O)Nc2n[nH]cc21",
    "studyTarget": "GSK3b (GST-full length GSK3b) (Homo sapiens (Human), UniProt P49841)",
    "readoutValue": "5.30 to 6.00"
  },
  {
    "compound": "CC[C@@]1(c2cccc(C(C)C)c2)C2=C(CC(C)(C)CC2=O)Nc2n[nH]cc21",
    "studyTarget": "GSK3b (GST-full length GSK3b) (Homo sapiens (Human), UniProt P49841)",
    "readoutValue": "5.30 to 6.00"
  },
  {
    "compound": "CCC1(c2cccc(-c3ccnc(C)c3C)c2)C2=C(CC(C)(C)CC2=O)Nc2n[nH]cc21 (centres unmarked)",
    "studyTarget": "GSK3b (GST-full length GSK3b) (Homo sapiens (Human), UniProt P49841)",
    "readoutValue": "5.30 to 6.00"
  },
  {
    "compound": "CCC1(c2cccc(C(F)(F)F)c2)C2=C(CC(C)(C)CC2=O)Nc2n[nH]cc21 (centres unmarked)",
    "studyTarget": "GSK3b (GST-full length GSK3b) (Homo sapiens (Human), UniProt P49841)",
    "readoutValue": "5.30 to 6.00"
  },
  {
    "compound": "CC(C)(C)Cc1[nH]nc2c1[C@@](C)(c1cccc(S(=O)(=O)CC3CC3)c1)C1=C(CC(C)(C)NC1=O)N2",
    "studyTarget": "GSK3b (GST-full length GSK3b) (Homo sapiens (Human), UniProt P49841)",
    "readoutValue": "< 5.30"
  }
]

Inquiry: Return pIC50 for the following compound: CC(C)(C)Cc1[nH]nc2c1C(C)(c1cccc(N3CCOCC3)c1)C1=C(CC(C)(C)CC1=O)N2 (centres unmarked) [Compound 126399]
Reply text: < 5.30

Inquiry: Return pIC50 for the following compound: CC[C@@]1(c2cccc(C(F)(F)F)c2)C2=C(Nc3n[nH]cc31)[C@H](C)CN(C)C2=O
Reply text: 5.30 to 6.00

Inquiry: Return pIC50 for the following compound: CCC1(c2cccc(-c3c(C)cncc3C)c2)C2=C(CC(C)(C)CC2=O)Nc2n[nH]cc21 (centres unmarked)
Reply text: 6.00 to 7.00

Inquiry: Return pIC50 for the following compound: CCC1(c2cccc(-c3cnn(C)c3)c2)C2=C(CC(C)(C)NC2=O)Nc2n[nH]c(C(F)(F)F)c21 (centres unmarked)
Reply text: 6.00 to 7.00

Inquiry: Return pIC50 for the following compound: CC[C@@]1(c2cccc(-c3cn(C)nc3C)c2)C2=C(CC(C)(C)NC2=O)Nc2n[nH]c(F)c21
Reply text: 5.30 to 6.00

Inquiry: Return pIC50 for the following compound: CCC1(c2cccc(N(C)C(=O)c3cnn(C)c3)c2)C2=C(CC(C)(C)CC2=O)Nc2n[nH]cc21 (centres unmarked)
Reply text: < 5.30

Inquiry: Return pIC50 for the following compound: CCC1(c2cccc(C)c2)C2=C(CC(C)(C)CC2=O)Nc2n[nH]c(C(F)(F)F)c21 (centres unmarked)
Reply text: 6.00 to 7.00

Inquiry: Return pIC50 for the following compound: CC[C@]1(c2cccc(S(=O)(=O)CC3CC3)c2)C2=C(CC(C)(C)NC2=O)Nc2n[nH]c(C(F)(F)F)c21
Reply text: ≥ 7.00

----------
Molecular target: GSK3b (GST-full length GSK3b) (Homo sapiens (Human), UniProt P49841)
Assay: GSK3b TR-FRET kinase assay
Assay type: biochemical
Details: 1 nM GSK3b, 2 μM ATP, 30 minute preincubation, Table 16; read-out: GSK3-B TR-FRET BIOCHEMICAL (TR-FRET)
pIC50: −log10 of the molar value.
experimentalEndpoint: pIC50

Some solved cases for reference:
[
  {
    "compound": "CCC1(c2cccc(-c3ccnc(O)c3)c2)C2=C(CC(C)(C)CC2=O)Nc2n[nH]cc21 (stereo not shown)",
    "experimentalEndpoint": "pIC50",
    "readoutValue": "6.00 to 7.00"
  },
  {
    "compound": "CC[C@]1(c2cccc(-c3cc(C)ncc3C)c2)C2=C(CC(C)(C)CC2=O)Nc2n[nH]cc21",
    "experimentalEndpoint": "pIC50",
    "readoutValue": "< 5.30"
  },
  {
    "compound": "CC1(C)CC(=O)C2=C(C1)Nc1n[nH]cc1C21CN(c2ccccc2)C1",
    "experimentalEndpoint": "pIC50",
    "readoutValue": "≥ 7.00"
  }
]

Inquiry: Look up and report pIC50, with GSK3b (GST-full length GSK3b) (Homo sapiens (Human), UniProt P49841) as system, for CC[C@@]1(c2cccc(C(F)(F)F)c2)C2=C(CNC2=O)Nc2n[nH]cc21
Reply text: < 5.30

The values you see were collected from patent US20250313563A1.
